Biological target: human recombinant DPP-IV (Homo sapiens, UniProt P27487)
Sequence (P27487 whole entry): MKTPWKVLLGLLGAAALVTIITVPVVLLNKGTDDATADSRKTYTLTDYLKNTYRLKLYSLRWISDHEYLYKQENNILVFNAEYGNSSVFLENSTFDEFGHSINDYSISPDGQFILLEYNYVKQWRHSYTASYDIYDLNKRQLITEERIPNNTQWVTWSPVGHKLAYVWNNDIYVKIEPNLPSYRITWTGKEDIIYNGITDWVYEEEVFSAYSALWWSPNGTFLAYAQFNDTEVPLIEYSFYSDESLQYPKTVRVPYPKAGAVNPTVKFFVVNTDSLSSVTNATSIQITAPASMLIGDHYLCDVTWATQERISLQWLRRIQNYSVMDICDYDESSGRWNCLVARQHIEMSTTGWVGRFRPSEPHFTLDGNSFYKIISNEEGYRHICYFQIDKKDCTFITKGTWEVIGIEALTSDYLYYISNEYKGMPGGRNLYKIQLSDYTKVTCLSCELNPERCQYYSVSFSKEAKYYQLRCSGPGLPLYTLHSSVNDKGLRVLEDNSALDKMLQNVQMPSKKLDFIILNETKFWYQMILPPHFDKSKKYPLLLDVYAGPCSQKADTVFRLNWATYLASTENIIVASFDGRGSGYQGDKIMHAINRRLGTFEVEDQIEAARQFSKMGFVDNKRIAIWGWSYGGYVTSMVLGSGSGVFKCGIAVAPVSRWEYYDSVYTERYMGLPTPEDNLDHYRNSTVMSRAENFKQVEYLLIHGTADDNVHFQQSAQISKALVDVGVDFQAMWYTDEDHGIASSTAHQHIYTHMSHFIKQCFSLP
Experiment: Inhibition of human recombinant DPP-IV (Gly-Pro-AMC hydrolysis, fluorometric)
Conditions: human recombinant DPP-IV, 50 μM Gly-Pro-AMC, 30 min at 30° C.
pIC50: −log10 of the molar value. Where a name gives a salt, the structure may show the parent alone.
Mark Condition met for reported pIC50 of 8 or greater; mark Condition not met for anything smaller.

N[C@H](C(=O)N1CCSC1)C1CC2CCC(C1)N2C(=O)c1ccc(C(F)(F)F)cc1 (some centres unmarked) [Compound 21, trifluoroacetic acid salt]    Condition not met
N#C[C@@H]1C[C@@H]2C[C@@H]2N1C(=O)[C@@H](N)C1CC2CCC(C1)N2C(=O)c1ccncc1F (some centres unmarked) [Compound 41, trifluoroacetic acid salt]    Condition met
N#Cc1ccc(C(=O)N2C3CCC2CC([C@H](N)C(=O)N2[C@H](C#N)C[C@@H]4C[C@@H]42)C3)cc1 (some centres unmarked) [Compound 24, trifluoroacetic acid salt]    Condition met
N#C[C@@H]1C[C@@H]2C[C@@H]2N1C(=O)[C@@H](N)[C@@H]1C[C@H]2CC[C@@H](C1)N2C(=O)c1ccncc1.O=C(O)C(F)(F)F [Compound 25, trifluoroacetic acid salt]    Condition met

Textbook exercise: given the entry N#C[C@@H]1CCCN1C(=O)[C@@H](N)C1CC2CCC(C1)N2Cc1cc(F)c(F)cc1F (some centres unmarked) [Compound 9, trifluoroacetic acid salt] , state whether its pIC50 is greater than or equal to 8.
Condition met

* * *

Biological target: human recombinant DPP-IV (Homo sapiens, UniProt P27487)
Test: Inhibition of human recombinant DPP-IV (Gly-Pro-AMC hydrolysis, fluorometric)
Conditions: human recombinant DPP-IV, 50 μM Gly-Pro-AMC, 30 min at 30° C.
Where a name gives a salt, the structure may show the parent alone.
// classify: if (IC50 < 2 nM) true (1) else false (0)

Use these answered entries as a reference point.
N#Cc1ccc(N2C3CCC2CC([C@H](N)C(=O)N2[C@H](C#N)C[C@@H]4C[C@@H]42)C3)nc1 (stereo partly drawn) [Compound 51, trifluoroacetic acid salt]    false (0)
N#C[C@@H]1CCCN1C(=O)[C@@H](N)C1CC2CCC(C1)N2C(=O)c1ccc(C(F)(F)F)cc1.O=C(O)C(F)(F)F (stereo partly drawn) [Compound 2, trifluoroacetic acid salt]    true (1)
N#Cc1ccc(C(=O)N2C3CCC2CC([C@H](N)C(=O)N2CCC[C@H]2C#N)C3)cc1 (stereo partly drawn) [Compound 5, trifluoroacetic acid salt]    true (1)

Lab log: compare recorded IC50 with 2 nM; is it strictly lower for Cl.N#C[C@@H]1C[C@H](F)CN1C(=O)[C@@H](N)C1CC2CCC(C1)N2C(=O)c1ccc(C(F)(F)F)cc1 (stereo partly drawn) [Compound 15, hydrochloride salt] ?
true (1)

And the next one, N#C[C@@H]1C[C@@H]2C[C@@H]2N1C(=O)[C@@H](N)C1CC2CCC(C1)N2S(=O)(=O)c1cc(F)cc(F)c1 (stereo partly drawn) [Compound 42, trifluoroacetic acid salt] ?
false (0)

Try this compound too: N#C[C@@H]1CCCN1C(=O)[C@@H](N)C1CC2CCC(C1)N2C(=O)c1ccnc(F)c1 (stereo partly drawn) [Compound 7, trifluoroacetic acid salt]
true (1)

Field entry: N#C[C@@H]1CCCN1C(=O)[C@@H](N)C1CC2CCC(C1)N2C(=O)c1cc(F)ccc1F (stereo partly drawn) [Compound 6, trifluoroacetic acid salt]
false (0)

Input N#C[C@H]1CSCN1C(=O)[C@@H](N)C1CC2CCC(C1)N2C(=O)c1ccc(C(F)(F)F)cc1 (stereo partly drawn) [Compound 20]
false (0)

Can you check N#C[C@@H]1C[C@@H]2C[C@@H]2N1C(=O)[C@@H](N)C1CC2CCC(C1)N2C(=O)c1cc(F)c(F)cc1F (stereo partly drawn) [Compound 23, trifluoroacetic acid salt] next?
false (0)

Follow-up item: C#C[C@H]1CC[C@@H](C#N)N1C(=O)[C@@H](N)C1CC2CCC(C1)N2C(=O)c1ccncc1 (stereo partly drawn) [Compound 64, acetic acid salt]
false (0)

Repeat for the following compound: N#C[C@@H]1C[C@@H]2C[C@@H]2N1C(=O)[C@@H](N)C1CC2CCC(C1)N2S(=O)(=O)c1cccs1 (stereo partly drawn) [Compound 57, trifluoroacetic acid salt]
false (0)

What about N#C[C@@H]1C[C@@H]2C[C@@H]2N1C(=O)[C@@H](N)C1CC2CCC(C1)N2C(=O)c1ccccn1 (stereo partly drawn) [Compound 39, trifluoroacetic acid salt] ?
false (0)

* * *

Molecular target: human recombinant DPP-IV (Homo sapiens, UniProt P27487)
Assay: Inhibition of human recombinant DPP-IV (Gly-Pro-AMC hydrolysis, fluorometric)
Conditions: human recombinant DPP-IV, 50 μM Gly-Pro-AMC, 30 min at 30° C.
Structures can show the parent of a compound that is named as a salt.
A collection of compounds and their measured pIC50
As a rule, pIC50 stands for the negative log10 of the concentration, concentration in M.

C#C[C@H]1CC[C@@H](C#N)N1C(=O)[C@@H](N)C1CC2CCC(C1)N2C(=O)c1ccncc1F (stereo partly drawn) [Compound 65, trifluoroacetic acid salt]    8.15
N#C[C@@H]1CCCN1C(=O)[C@@H](N)C1CC2CCC(C1)N2 (stereo partly drawn) [Compound 8, acetic acid salt]    8.16

# context switch: different compound, same pIC50
Entry N#C[C@@H]1C[C@@H]2C[C@@H]2N1C(=O)[C@@H](N)C1CC2CCC(C1)N2C(=O)c1ccnc(F)c1 (stereo partly drawn) [Compound 28, acetic acid salt] has what pIC50?
8.33

* * *

Counter-ions that a name gives are not always drawn.
Endpoint: melting point

Some solved cases for reference:
N[C@H](C(=O)N1CCC[C@H]1C(=O)O)C1CC2CCC(C1)N2C(=O)c1ccc(C(F)(F)F)cc1 (stereo partly shown) (as salt: trifluoroacetic acid salt) [Compound 11]    161 to 163 °C
N[C@H](C(=O)N1CC(F)C1)C1CC2CCC(C1)N2C(=O)c1ccncc1F (stereo partly shown) (as salt: trifluoroacetic acid salt) [Compound 62]    90 to 93 °C
N#C[C@@H]1C[C@@H]2C[C@@H]2N1C(=O)[C@@H](N)C1CC2CCC(C1)N2C(=O)c1ccnc(F)c1 (stereo partly shown) (as salt: salt) [Compound 28, acetic acid salt]    112 to 115 °C
Cl.N#C[C@@H]1C[C@H](F)CN1C(=O)[C@@H](N)C1CC2CCC(C1)N2C(=O)c1ccc(C(F)(F)F)cc1 (stereo partly shown) [Compound 15]    168 to 170 °C
N[C@H](C(=O)N1[C@H](C(=O)O)C[C@@H]2C[C@@H]21)C1CC2CCC(C1)N2C(=O)c1ccc2c(c1)OCO2 (stereo partly shown) (as salt: hydrochloride) [Compound 46]    280 °C (dec.)

What measured melting point goes with N#C[C@@H]1CCCN1C(=O)[C@@H](N)C1CC2CCC(C1)N2 (stereo partly shown) (as salt: salt) [Compound 8, acetic acid salt] ?
143 to 145 °C

Again, but for COC(=O)[C@@H]1CCCN1C(=O)[C@@H](N)C1CC2CCC(C1)N2C(=O)c1ccc(C(F)(F)F)cc1 (stereo partly shown) [Compound 10]
173 to 175 °C

Item: N[C@H](C(=O)N1CCSC1)C1CC2CCC(C1)N2C(=O)c1ccc(C(F)(F)F)cc1 (stereo partly shown) (as salt: trifluoroacetic acid salt) [Compound 21]
123 to 125 °C

Then what about the compound NC(=O)[C@@H]1C[C@@H]2C[C@@H]2N1C(=O)[C@@H](N)C1CC2CCC(C1)N2C(=O)c1ccc2c(c1)OCO2 (stereo partly shown) (as salt: salt) [Compound 45, acetic acid salt] ?
154 to 156 °C

Further, for N#C[C@H]1CSCN1C(=O)[C@@H](N)C1CC2CCC(C1)N2C(=O)c1ccc(C(F)(F)F)cc1 (stereo partly shown) (as salt: salt) [Compound 20] ?
159 to 161 °C

Now this one: C#C[C@H]1CC[C@@H](C#N)N1C(=O)[C@@H](N)C1CC2CCC(C1)N2C(=O)c1ccc(C(F)(F)F)cc1 (stereo partly shown) (as salt: salt) [Compound 63, acetic acid salt]
160 to 163 °C

Now the same for Cl.N[C@H](C(=O)N1CCC[C@H]1c1nn[nH]n1)C1CC2CCC(C1)N2C(=O)c1ccc(C(F)(F)F)cc1 (stereo partly shown) [Compound 13]
244 to 246 °C

Also C#C[C@H]1CC[C@@H](C#N)N1C(=O)[C@@H](N)C1CC2CCC(C1)N2C(=O)c1ccnc(F)c1 (stereo partly shown) (as salt: salt) [Compound 66, acetic acid salt] ?
199 to 200 °C

* * *

Molecular target: human recombinant DPP-IV (Homo sapiens)
Construct: purchased R&D Systems, USA (or produced in-house)
Assay: Inhibition of human recombinant DPP-IV (Gly-Pro-AMC hydrolysis, fluorometric)
Assay type: biochemical
Conditions: human recombinant DPP-IV, 50 μM Gly-Pro-AMC, 30 min at 30° C.
Where a name gives a salt, the structure may show the parent alone.
Entries and their IC50
# do not omit the unit; it follows the number

N#C[C@@H]1CCCN1C(=O)[C@@H](N)C1CC2CCC(C1)N2C(=O)c1ccncc1 (stereo partly drawn) [Compound 4, trifluoroacetic acid salt]    1.03 nM

IC50 for CS(=O)(=O)c1ccc(N2C3CCC2CC([C@H](N)C(=O)N2[C@H](C#N)C[C@@H]4C[C@@H]42)C3)cc1 (stereo partly drawn) [Compound 53, trifluoroacetic acid salt] ?
19.7 nM

Please answer likewise for N#C[C@@H]1C[C@@H]2C[C@@H]2N1C(=O)[C@@H](N)C1CC2CCC(C1)N2C(=O)c1ccc(C(F)(F)F)cc1 (stereo partly drawn) [Compound 26, trifluoroacetic acid salt]
8.9 nM
